Assay: Antiproliferative activity against human SV-HUC-1 cells after 24 hrs by CCK-8 assay
Assay type: functional, cell-based
Conditions: SV-HUC1, 24 h
quantity.kind: pIC50
API: returns pIC50 as number; meaning -log10 of concentration in mol/L.

Req: Param item = `CCNc1cc2c(cc1C)C1(c3cc(C)c(NCC)cc3O2)c2ccccc2C(=O)N1Cc1ccccn1` ; retrieve measured pIC50.
Resp: 4.59
